- test-target: cloned human δ opioid receptors (Homo sapiens, UniProt P41143)
- Sequence (P41143 whole entry): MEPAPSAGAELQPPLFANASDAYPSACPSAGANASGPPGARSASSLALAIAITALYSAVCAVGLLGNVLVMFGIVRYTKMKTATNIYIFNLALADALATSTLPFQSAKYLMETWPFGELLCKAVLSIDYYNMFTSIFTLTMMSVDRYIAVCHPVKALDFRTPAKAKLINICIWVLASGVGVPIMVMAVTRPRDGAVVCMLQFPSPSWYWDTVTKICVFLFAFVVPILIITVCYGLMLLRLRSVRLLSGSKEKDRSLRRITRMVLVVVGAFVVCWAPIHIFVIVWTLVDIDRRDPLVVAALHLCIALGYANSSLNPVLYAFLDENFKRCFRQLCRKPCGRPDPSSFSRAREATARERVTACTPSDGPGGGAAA
pKi: −log10 of the molar value.
recorded-endpoint: pKi

In [3]: df
Out[3]:
                                   compound  recorded_endpoint  measured_value
0  CCNC(=O)c1ccc2c(c1)C(CCCCC(=O)N(CC)CC)CC1(CCNCC1)C2 (stereo not shown)                pKi            9.33

* * *

- test-target: cloned human μ opioid receptors (Homo sapiens, UniProt P35372)
- Sequence (P35372 whole entry): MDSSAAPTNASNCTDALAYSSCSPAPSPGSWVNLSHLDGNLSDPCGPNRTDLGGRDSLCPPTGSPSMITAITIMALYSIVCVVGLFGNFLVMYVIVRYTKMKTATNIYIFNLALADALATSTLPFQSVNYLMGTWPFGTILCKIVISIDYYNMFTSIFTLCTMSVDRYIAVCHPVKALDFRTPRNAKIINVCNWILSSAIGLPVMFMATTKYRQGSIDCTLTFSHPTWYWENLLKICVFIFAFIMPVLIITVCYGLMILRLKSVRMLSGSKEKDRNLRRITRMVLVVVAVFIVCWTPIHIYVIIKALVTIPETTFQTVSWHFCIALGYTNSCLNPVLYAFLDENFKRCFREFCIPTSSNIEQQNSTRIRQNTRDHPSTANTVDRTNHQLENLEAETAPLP
recorded-endpoint: Ki (nM)

                                   molecule  measured_value
0  CCNC(=O)c1ccc2c(c1)C(CCCCC(=O)N(CC)CC)CC1(CCNCC1)C2 (stereo not shown) [Example 9D]             632

* * *

- test-target: cloned human δ opioid receptors (Homo sapiens, UniProt P41143)
- assay-comment: Receptor-mediated [35S]GTPγS binding, δ opioid receptor
- test-context: stimulation of [35S]GTPγS binding to membranes containing cloned human δ opioid receptors; read-out: in vitro δ agonist activity EC50
pEC50: −log10 of the molar value.
recorded-endpoint: pEC50

                                   molecule  measured_value
0  CCNC(=O)c1ccc2c(c1)C(CCCCC(=O)N(CC)CC)CC1(CCNCC1)C2 (stereo not shown)            8.09
